B1: TPR t1 (parent)
chain: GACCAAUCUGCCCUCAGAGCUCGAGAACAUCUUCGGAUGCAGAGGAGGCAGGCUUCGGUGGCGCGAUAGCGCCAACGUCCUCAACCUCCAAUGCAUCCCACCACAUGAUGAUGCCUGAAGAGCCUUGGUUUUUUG

variants of: B1; experiment: polymerase ribozyme fitness, log enrichment relative to wild type (log ratio); higher = more active; in vitro selection for triplet polymerase activity
Recorded polymerase ribozyme fitness (log ratio), one value per entry.
Respond with the number and no other words.

Here's what some known entries look like.
>>> readout_value("U78G U130G")
-0.347
>>> readout_value("C11A U32C A37C")
-1.07
>>> readout_value("G57U C70U C76G U131C")
-0.726
>>> readout_value("G39A A46U U78A U126C")
-3.53
>>> readout_value("A24G G51U G69A G113C G120U")
-6.67

Query: polymerase ribozyme fitness (log ratio); subject: G45A C49A G110U
-2.18
